Data credit: patent US12667572B2

TARGET_OR_TEST_SYSTEM: full-length MALT1 protein His-MALT1(1-824) (Homo sapiens, UniProt Q9UDY8)
Construct: full-length MALT1 protein His-MALT1(1-824); His (N); made in house; host or cells: baculovirus-infected insect cells
Sequence (Q9UDY8 whole entry): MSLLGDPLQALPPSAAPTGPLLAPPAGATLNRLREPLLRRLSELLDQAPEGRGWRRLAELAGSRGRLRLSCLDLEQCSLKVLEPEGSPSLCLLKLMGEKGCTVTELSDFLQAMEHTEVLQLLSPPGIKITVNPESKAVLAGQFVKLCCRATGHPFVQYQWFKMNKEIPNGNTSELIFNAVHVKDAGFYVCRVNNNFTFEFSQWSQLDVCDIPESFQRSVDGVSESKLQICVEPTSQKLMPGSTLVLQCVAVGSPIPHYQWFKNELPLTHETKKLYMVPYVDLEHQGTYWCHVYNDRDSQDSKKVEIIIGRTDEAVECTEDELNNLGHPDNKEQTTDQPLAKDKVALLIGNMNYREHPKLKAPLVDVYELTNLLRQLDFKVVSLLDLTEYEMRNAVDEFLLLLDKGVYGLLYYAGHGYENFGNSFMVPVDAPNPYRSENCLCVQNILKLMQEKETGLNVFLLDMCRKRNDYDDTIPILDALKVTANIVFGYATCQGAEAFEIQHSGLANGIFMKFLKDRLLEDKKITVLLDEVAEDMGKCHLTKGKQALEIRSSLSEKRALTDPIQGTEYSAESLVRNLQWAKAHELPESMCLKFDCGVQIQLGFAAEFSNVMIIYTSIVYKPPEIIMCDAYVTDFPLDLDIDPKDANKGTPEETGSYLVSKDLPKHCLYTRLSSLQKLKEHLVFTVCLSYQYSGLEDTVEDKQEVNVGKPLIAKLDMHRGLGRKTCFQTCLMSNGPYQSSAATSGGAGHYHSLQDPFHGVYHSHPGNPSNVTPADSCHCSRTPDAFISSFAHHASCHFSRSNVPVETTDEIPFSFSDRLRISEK
PROCEDURE_SUMMARY: MALT1 protease assay, Assay 2 (1 nM MALT1, Ac-LRSR-AMC substrate)
Assay type: biochemical
CONDITION_LABEL: 1 nM MALT1, 50 μM Ac-LRSR-AMC, 2 h pre-incubation, 8 hr incubation at RT
Parameter IC50: see the listing below.

Example entries and their recorded answers appear below.
| COMPOUND | IC50 |
| --- | --- |
| O=C(Nc1cnc(-n2nccn2)c(Cl)c1)C1CC2(CCC2)c2c1cnc1cc(F)nn21 (single isomer, unassigned) | ≥ 1000 nM |
| O=C(Nc1cnc(-n2nccn2)c(C(F)(F)F)c1)C1CC2(CC2)c2c1cnc1cc(Cl)nn21 (single isomer, unassigned) [Example 149] | 10 to 100 nM |
| C[C@@]1(C(F)(F)F)C[C@@H](C(=O)Nc2cnc(-n3nccn3)c(Cl)c2)c2cnc3cc(F)nn3c21 (single isomer, unassigned) [Example 186] | 100 to 1000 nM |
| N#Cc1cc(NC(=O)[C@H]2CC3(CCOCC3)c3c2cnc2cc(F)nn32)cnc1OC(F)F (single isomer, unassigned) | 10 to 100 nM |
| Cc1cc(NC(=O)[C@@H]2CC(C)(C)c3c2cnc2cc(Cl)nn32)cnc1-n1nccn1 (single isomer, unassigned) [Example 180] | ≥ 1000 nM |

Item: CC1(C)C[C@@H](C(=O)Nc2cnc(OC(F)F)c(C#N)c2)c2cnc3c(F)c(F)nn3c21 (single isomer, unassigned) Test system: full-length MALT1 protein His-MALT1(1-824) (Homo sapiens, UniProt Q9UDY8) Read-out: IC50 Value: ?
≥ 1000 nM
